- Target: 5HT2B receptors (Homo sapiens)
- Construct: expressed in transfected cells; host or cells: CHO-K1 cells
- Test method notes: Human 5-HT2B functional assay in CHO-K1 cells (calcium flux, FLIPR)
- Type: cell-based
pEC50: −log10 of the molar value.
Property measured: pEC50

Would you please look over these solved cases?
{"Compound": "c1cc(-c2ccncc2)c2c(c1)N1CCNC[C@@H]1CCO2", "Property measured": "pEC50", "Result": "< 5.00"}
{"Compound": "c1cncc(-c2cccc3c2OCC[C@H]2CNCCN32)c1", "Property measured": "pEC50", "Result": "< 5.00"}

Parameter requested: pEC50. Apply to each item below.
1. c1cncc(-c2ccc3c(c2)N2CCNC[C@@H]2CCO3)c1
2. O=C1C[C@H]2CNCCN2c2cccc(F)c2N1
3. CN1CCN2c3cc(Cl)ccc3OCC[C@H]2C1

1. < 5.00
2. < 5.00
3. < 5.00

Parameter requested: pEC50. Apply to each item below.
1. C[C@H]1CN2c3ccccc3OCC[C@H]2CN1
2. Cc1ccc2c(c1)OCC[C@H]1CNCCN21
3. Cc1cccc2c1OCC[C@H]1CN(C)CCN21
4. [2H]c1ccc2c(c1)N1CCNC[C@@H]1CCO2
5. [2H]c1cccc2c1OCC[C@H]1CNCCN21

1: < 5.00; 2: < 5.00; 3: < 5.00; 4: 6.70; 5: 7.05

Parameter requested: pEC50. Apply to each item below.
1. Clc1cc(Cl)c2c(c1)N1CCNC[C@@H]1CCO2
2. CN1CCN2c3cccc(F)c3NC(=O)CC2C1 (stereo not drawn)

1: 7.40; 2: < 5.00

---

Give measured Emax for each item. Keep answers brief.
- Target: 5HT2C receptors (Homo sapiens, UniProt P28335)
- Sequence (P28335 33-458): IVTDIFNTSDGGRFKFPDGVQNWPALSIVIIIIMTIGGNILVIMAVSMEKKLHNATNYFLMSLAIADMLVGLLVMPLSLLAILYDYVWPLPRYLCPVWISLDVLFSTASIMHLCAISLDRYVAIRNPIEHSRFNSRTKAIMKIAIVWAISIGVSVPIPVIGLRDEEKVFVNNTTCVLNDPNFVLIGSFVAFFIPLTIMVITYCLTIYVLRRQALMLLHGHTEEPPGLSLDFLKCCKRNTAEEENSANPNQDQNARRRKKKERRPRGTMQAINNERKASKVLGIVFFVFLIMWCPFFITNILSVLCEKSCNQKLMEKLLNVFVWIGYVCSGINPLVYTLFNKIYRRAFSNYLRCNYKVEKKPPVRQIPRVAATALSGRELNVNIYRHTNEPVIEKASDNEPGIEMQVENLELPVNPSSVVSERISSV
- Test method notes: Human 5-HT2C functional assay in CHO-K1 cells (calcium flux, FLIPR)
- Format: cell-based
- Set-up: expressed in transfected cells; host or cells: CHO-K1 cells
- Test conditions: CHO-K1 cells; percentage relative to the effect of serotonin; read-out: Emax (%), 5-HT2c Agonist Activity
- Method: (iii) Human 5-HT2C and 5-HT2B Functional Assay in CHO-K1 Cells […] Fluorescence measurements were read at 25° C. at an excitation wavelength of 480 nm and an emission wavelength of 530 nm in FLIPR (MDS). Baseline fluorescence was measured for the first 10 seconds and then 15 μL of 4× concentrations of serotonin/test compounds was added to the cell plate. The fluorescence intensity was captured every second for the first 1 minute followed by every 5 seconds for an additional 2 minutes. […]

Would you please look over these solved cases?
{"Compound": "O=C1CC2CNCCN2c2cc(-c3cccc(OC(F)(F)F)c3)ccc2N1 (stereo not shown) [Example 93]", "Target": "5HT2C receptors (Homo sapiens, UniProt P28335)", "Emax": "> 120%"}
{"Compound": "CCOc1ccc2c(c1)N1CCNCC1CC(=O)N2 (stereo not shown) [Example 44]", "Target": "5HT2C receptors (Homo sapiens, UniProt P28335)", "Emax": "> 120%"}
{"Compound": "O=C1CC2CNCCN2c2cc(CCc3cccc(F)c3)ccc2N1 (stereo not shown) [Example 145]", "Target": "5HT2C receptors (Homo sapiens, UniProt P28335)", "Emax": "> 120%"}
{"Compound": "CN1CCN2c3cc(-c4cccc(S(C)(=O)=O)c4)ccc3OCC[C@H]2C1 [Example 221]", "Target": "5HT2C receptors (Homo sapiens, UniProt P28335)", "Emax": "50%"}
{"Compound": "c1ccc(CCc2ccc3c(c2)N2CCNC[C@@H]2CCO3)cc1 [Example 212]", "Target": "5HT2C receptors (Homo sapiens, UniProt P28335)", "Emax": "80%"}

Parameter requested: Emax. Apply to each item below.
1. COc1ccc(-c2ccc3c(c2)N2CCNC[C@@H]2CCO3)cc1 [Example 194]
2. COc1cccc(-c2ccc3c(c2)N2CCNCC2CC(=O)N3)c1 (stereo not shown) [Example 65]
3. O=C1CC2CNCCN2c2cc(-c3cccc(C(F)(F)F)c3)ccc2N1 (stereo not shown) [Example 90]
4. O=C1C[C@H]2CNCCN2c2cc(-c3ccccc3F)ccc2N1 [Example 116]
5. O=C1CC2CNCCN2c2cc(-c3ccccc3F)ccc2N1 (stereo not shown) [Example 70]
6. CC(O)c1ccc(-c2ccc3c(c2)OCC[C@H]2CNCCN32)cc1 (stereo partly shown) [Example 228]
7. CC(C)Cc1ccc2c(c1)N1CCNC[C@@H]1CCO2 [Example 213]
8. Clc1ccc2c(c1)N1CCN(Cc3ccccc3)C[C@@H]1CCO2 [Example 186]

1. > 120%
2. > 120%
3. > 120%
4. > 120%
5. > 120%
6. 100%
7. 120%
8. > 120%

Parameter requested: Emax. Apply to each item below.
1. O=C1C[C@H]2CNCCN2c2cc(OCCc3ccccn3)ccc2N1 [Example 171]
2. O=C1CC2CNCCN2c2cc(COc3cccc(F)c3)ccc2N1 (stereo not shown) [Example 114]
3. CS(=O)(=O)c1ccc(-c2ccc3c(c2)OCC[C@H]2CNCCN32)cc1 [Example 230]

["100%", "> 120%", "90%"]

---

Give measured Emax for each item. Keep answers brief.
- Target: 5HT2C receptors (Homo sapiens)
- Test method notes: Human 5-HT2C functional assay in CHO-K1 cells (calcium flux, FLIPR)
- Assay type: cell-based
- Set-up: expressed in transfected cells; host or cells: CHO-K1 cells
- Test conditions: CHO-K1, read-out: Emax (%), 5-HT2c Agonist Activity, CHO-K1 cells; percentage relative to the effect of serotonin
Numbers only, in %.

Would you please look over these solved cases?
{"Smiles str": "C[C@@H]1CN2c3ccccc3OCC[C@H]2CN1", "Property measured": "Emax", "Unit spec": "%", "Numeric value": 70}
{"Smiles str": "Cc1ccc2c(c1)OCC[C@@H]1CNCCN21", "Property measured": "Emax", "Unit spec": "%", "Numeric value": 100}

Parameter requested: Emax. Apply to each item below.
1. Cc1cccc2c1OCC[C@H]1CN(C)CCN21
2. COc1cccc2c1OCC[C@H]1CNCCN21

80
90

---

Give measured EC50 for each item. Keep answers brief.
- Target: 5HT2B receptors (Homo sapiens, UniProt P41595)
- Construct: expressed in transfected cells; host or cells: CHO-K1 cells
- Sequence (P41595 whole entry): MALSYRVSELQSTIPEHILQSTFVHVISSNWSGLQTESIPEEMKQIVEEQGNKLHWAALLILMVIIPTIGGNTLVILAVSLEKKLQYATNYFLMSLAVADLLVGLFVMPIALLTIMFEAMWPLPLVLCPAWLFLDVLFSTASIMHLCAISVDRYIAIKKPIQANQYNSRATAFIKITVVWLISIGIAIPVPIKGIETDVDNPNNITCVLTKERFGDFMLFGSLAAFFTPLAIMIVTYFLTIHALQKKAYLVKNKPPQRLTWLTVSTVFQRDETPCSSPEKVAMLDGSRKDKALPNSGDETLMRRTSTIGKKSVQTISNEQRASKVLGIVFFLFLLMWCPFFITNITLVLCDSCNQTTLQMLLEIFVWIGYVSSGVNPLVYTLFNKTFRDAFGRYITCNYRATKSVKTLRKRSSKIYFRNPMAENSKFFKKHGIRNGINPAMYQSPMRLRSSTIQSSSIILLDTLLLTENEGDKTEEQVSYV
- Test method notes: Human 5-HT2B functional assay in CHO-K1 cells (calcium flux, FLIPR)
- Type: cell-based
- Test conditions: CHO-K1 cells over-expressing 5HT2B, calcium flux; read-out: EC50 (μM), 5-HT2B Agonist Activity
- Experimental: (iii) Human 5-HT2C and 5-HT2B Functional Assay in CHO-K1 Cells […] Fluorescence measurements were read at 25° C. at an excitation wavelength of 480 nm and an emission wavelength of 530 nm in FLIPR (MDS). Baseline fluorescence was measured for the first 10 seconds and then 15 μL of 4× concentrations of serotonin/test compounds was added to the cell plate. The fluorescence intensity was captured every second for the first 1 minute followed by every 5 seconds for an additional 2 minutes. […]

Would you please look over these solved cases?
{"Molecule": "FCCN1CCN2c3ccccc3OCC[C@H]2C1 [Example 240]", "EC50": "1 µM"}
{"Molecule": "O=C1CC2CNCCN2c2cc(C3CC3)ccc2N1 (centres unmarked) [Example 52]", "EC50": "> 10 µM"}
{"Molecule": "Fc1ccc(-c2ccc3c(c2)N2CCNC[C@@H]2CCO3)cc1 [Example 205]", "EC50": "5 µM"}
{"Molecule": "O=C1CC2CNCCN2c2cc(-c3cccc(-n4cccn4)c3)ccc2N1 (centres unmarked) [Example 73]", "EC50": "> 10 µM"}

Parameter requested: EC50. Apply to each item below.
1. O=C1C[C@H]2CNCCN2c2cc(OCCc3ccccc3F)ccc2N1 [Example 118]
2. COc1cccc(-c2ccc3c(c2)N2CCNCC2CC(=O)N3)c1 (centres unmarked) [Example 65]
3. Fc1cccc(-c2ccc3c(c2)N2CCNC[C@@H]2CCO3)c1 [Example 204]
4. c1cc(-c2ccsc2)c2c(c1)N1CCNC[C@@H]1CCO2 [Example 250]

1. > 10 µM
2. > 10 µM
3. > 10 µM
4. > 10 µM

Value source: patent US8546377B2
